# systemUnderTest: Glycogen synthase kinase-3 beta (Homo sapiens)
# assayProtocol: concentration-response blocking of human GSK3B – biochemical, luminescence, cell-free homogeneous, retest, dose response (AID 434954)
# conditionsUsed: recombinant GSK3beta, ADP-Glo luminescence, 60 min
The source made the active and inactive calls.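 Rule for the calls: active = IC50 at or below a set limit above the highest tested dose; inconclusive = flat curve with 30 to 70% inhibition, or poor fit; inactive = the rest.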
Allowed answers: active, inactive

molecule="CC1(C)CC(=O)C2=C(C1)Nc1cc3c(cc1C2c1ccc(F)cc1)OCO3 (stereo not given)" systemundertest="Glycogen synthase kinase-3 beta (Homo sapiens)" labelclass=inactive
molecule="Cc1[nH]nc2c1C(c1ccc(O)cc1)C1=C(CC(C)(C)CC1=O)N2 (stereo not given)" systemundertest="Glycogen synthase kinase-3 beta (Homo sapiens)" labelclass=active
molecule="O=C1C(=O)N(c2ccccn2)C(c2ccc(Br)cc2)/C1=C(/O)c1ccc(Br)cc1 (stereo not given)" systemundertest="Glycogen synthase kinase-3 beta (Homo sapiens)" labelclass=inactive
molecule=CCOC(=O)/C(C(=O)Nc1ccc(Cl)cc1Cl)=C1/NC(C)(C)Cc2ccccc21 systemundertest="Glycogen synthase kinase-3 beta (Homo sapiens)" labelclass=inactive

Kindly consider the entry below.
For CCOC(=O)C1=C(CN2CCSCC2)NC(=O)NC1c1cc(C)ccc1C (stereo not given) , what call appears in the results of this test?
inactive

====

# systemUnderTest: Glycogen synthase kinase-3 beta (Homo sapiens) (UniProt P49841)
# Sequence (P49841 whole entry, looked up): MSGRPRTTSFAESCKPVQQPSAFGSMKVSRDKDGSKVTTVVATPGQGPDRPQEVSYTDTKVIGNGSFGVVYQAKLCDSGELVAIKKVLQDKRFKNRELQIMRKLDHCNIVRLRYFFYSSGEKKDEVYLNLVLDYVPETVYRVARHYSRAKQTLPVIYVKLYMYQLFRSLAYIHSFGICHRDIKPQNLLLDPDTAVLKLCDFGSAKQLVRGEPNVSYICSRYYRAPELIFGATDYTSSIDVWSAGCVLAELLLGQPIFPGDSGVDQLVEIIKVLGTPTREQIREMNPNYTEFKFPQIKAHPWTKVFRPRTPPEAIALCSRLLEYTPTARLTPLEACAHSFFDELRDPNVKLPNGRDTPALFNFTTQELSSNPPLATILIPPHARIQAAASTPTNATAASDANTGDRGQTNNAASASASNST
# assayProtocol: concentration-response blocking of human GSK3B – biochemical, luminescence, cell-free homogeneous, retest, dose response (AID 434954)
# conditionsUsed: recombinant GSK3beta, ADP-Glo luminescence, 60 min
Active and inactive are the calls of the source.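 The calls were made as follows: active = IC50 at or below a set limit above the highest tested dose; inconclusive = flat curve with 30 to 70% inhibition, or poor fit; inactive = the rest.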
Allowed answers: active, inactive

Worked examples, 5 compounds total:
compound="COc1ccc(C2CC(=O)C3=C(C2)Nc2ncnn2C3c2ccccc2C)cc1 (stereo unspecified)" labelclass=inactive
compound=COc1ccc(OC)c(N=c2oc3cc(O)ccc3cc2C(N)=O)c1 labelclass=active
compound=CCCCCCn1c(O)c(C=NCCCn2ccnc2)c(=O)[nH]c1=O labelclass=active
compound=CCOc1ccc(/C=C2/C(=N)N3OC(C)=CC3=NC2=O)cc1OC labelclass=inactive
compound=CCN(CC)S(=O)(=O)c1cccc(N2CC(O)=C(c3ccccc3)C2=N)c1 labelclass=inactive

For O=C1CC(c2c[nH]c3ccccc23)C(=O)N1c1ccccc1 (stereo unspecified) , what call appears in the results of this test?
inactive

For CCOC(=O)C1=C(C(F)(F)F)Nc2ncnn2C1c1cc(OC)ccc1OC (stereo unspecified) , what call appears in the results of this test?
inactive

====

# systemUnderTest: Glycogen synthase kinase-3 beta (Homo sapiens) (UniProt P49841)
# assayProtocol: concentration-response blocking of human GSK3B – biochemical, luminescence, cell-free homogeneous, retest, dose response (AID 434954)
# conditionsUsed: recombinant GSK3beta, ADP-Glo luminescence, 60 min
The source made the active and inactive calls.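 Rule for the calls: active = IC50 at or below a set limit above the highest tested dose; inconclusive = flat curve with 30 to 70% inhibition, or poor fit; inactive = the rest.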
Allowed answers: true (1) for active, false (0) for inactive

Worked examples, 2 compounds total:
compound=COc1ccc(-c2nn(-c3ccccc3)cc2/C=N/O)cc1 labelclass="true (1)"
compound="CCOC(=O)C1=C(C)Nc2ncnn2C1/C=C/c1ccccc1 (stereo unspecified)" labelclass="false (0)"

For Clc1ccc(/C=N/Nc2ncnc3nc[nH]c23)cc1 , what call appears in the results of this test?
true (1)

For CCc1ccc(/C=N/Nc2ncnc3nc[nH]c23)cc1 , what call appears in the results of this test?
true (1)

====

# systemUnderTest: Glycogen synthase kinase-3 beta (Homo sapiens) (UniProt P49841)
# assayProtocol: concentration-response blocking of human GSK3B – biochemical, luminescence, cell-free homogeneous, retest, dose response (AID 434954)
# conditionsUsed: recombinant GSK3beta, ADP-Glo luminescence, 60 min
The source made the active and inactive calls.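 How the source made its calls: active means IC50 at or below a set limit above the highest tested dose; inconclusive means flat curve with 30 to 70% inhibition, or poor fit; inactive means the rest.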
propertyMeasured: IC50

Reference set, count: 4
molecule=Fc1cccc(/C=N/Nc2ncnc3nc[nH]c23)c1 systemundertest="Glycogen synthase kinase-3 beta (Homo sapiens) (UniProt P49841)" valuereported="11.9 µM"
molecule="COc1ccc(C2C3=C(CCCC3=O)Nc3n[nH]c(C)c32)cc1OC (stereo not given)" systemundertest="Glycogen synthase kinase-3 beta (Homo sapiens) (UniProt P49841)" valuereported="> 30 µM (inactive)"
molecule="CCCCOC(=O)C1=C(C)Nc2ncnn2C1c1cccc(OC)c1OC (stereo not given)" systemundertest="Glycogen synthase kinase-3 beta (Homo sapiens) (UniProt P49841)" valuereported="4.25 µM"
molecule="COc1ccc(OC)c(C2Nc3ccccc3NC3=C2C(=O)CC(C)(C)C3)c1 (stereo not given)" systemundertest="Glycogen synthase kinase-3 beta (Homo sapiens) (UniProt P49841)" valuereported="> 30 µM (inactive)"

Here's the next entry for you.
The molecule COc1cc(C2C3=C(CC(C)(C)CC3=O)Nc3c2c(=O)[nH]c(=O)n3Cc2ccccc2)ccc1O (stereo not given) , tested on Glycogen synthase kinase-3 beta (Homo sapiens) (UniProt P49841), showed IC50 of > 30 µM (inactive)

====

# systemUnderTest: Glycogen synthase kinase-3 beta (Homo sapiens)
# assayProtocol: concentration-response blocking of human GSK3B – biochemical, luminescence, cell-free homogeneous, retest, dose response (AID 434954)
# conditionsUsed: recombinant GSK3beta, ADP-Glo luminescence, 60 min
The source made the active and inactive calls.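 Rule for the calls: active = IC50 at or below a set limit above the highest tested dose; inconclusive = flat curve with 30 to 70% inhibition, or poor fit; inactive = the rest.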
Allowed answers: active, inactive

For O=C(O)c1ccc(-c2ccc(/C=N/Nc3ccc([N+](=O)[O-])cc3)o2)cc1 , what call appears in the results of this test?
inactive

For O=C(O)c1cc(N/N=C/c2ccc(-c3ccc(F)cc3)o2)ccc1Cl , what call appears in the results of this test?
inactive

For Nc1ncnc2c1ncn2[C@@H]1O[C@H](COP(=O)(O)O)[C@@H](O)[C@H]1O , what call appears in the results of this test?
inactive

For COc1cc(-c2[nH]nc3c2C(c2ccco2)C(C#N)=C(N)O3)cc(OC)c1OC (stereo not given) , what call appears in the results of this test?
active

For O=c1[nH]c(=O)n(CCc2ccc(F)cc2)c(O)c1/C=N/N1CCCCC1 , what call appears in the results of this test?
inactive

For Nc1nc(F)nc2c1ncn2[C@@H]1O[C@H](CO)[C@@H](O)[C@@H]1O , what call appears in the results of this test?
inactive

For O=C(O)CCn1cc(/C=N/O)c(-c2cccc([N+](=O)[O-])c2)n1 , what call appears in the results of this test?
active

For O=C(O)c1cc(-c2ccc(/C=N/Nc3ccc(Cl)cc3)o2)ccc1Cl , what call appears in the results of this test?
inactive

For CC[n+]1c(/C=C/Nc2ccccc2)sc2ccccc21 , what call appears in the results of this test?
inactive

For O=C(CC1SC(N2CCCCC2)=NC1=O)Nc1cccc(C(F)(F)F)c1 (stereo not given) , what call appears in the results of this test?
inactive

====

# systemUnderTest: Glycogen synthase kinase-3 beta (Homo sapiens)
# assayProtocol: concentration-response blocking of human GSK3B – biochemical, luminescence, cell-free homogeneous, retest, dose response (AID 434954)
# conditionsUsed: recombinant GSK3beta, ADP-Glo luminescence, 60 min
Calls of active or inactive are those of the source.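 How the source made its calls: active means IC50 at or below a set limit above the highest tested dose; inconclusive means flat curve with 30 to 70% inhibition, or poor fit; inactive means the rest.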
Allowed answers: YES (active), NO (inactive)

Worked examples, 3 compounds total:
smilesstr=O/N=C/c1ccc(OCc2ccccc2)c(Cl)c1 systemundertest="Glycogen synthase kinase-3 beta (Homo sapiens)" labelclass=NO
smilesstr=COc1cc(/C=N/NC(=O)c2ccc(O)cc2)ccc1Oc1ccc([N+](=O)[O-])cn1 systemundertest="Glycogen synthase kinase-3 beta (Homo sapiens)" labelclass=NO
smilesstr=C(=N\Nc1nccc(-c2cccnc2)n1)/c1ccccc1 systemundertest="Glycogen synthase kinase-3 beta (Homo sapiens)" labelclass=YES

Kindly consider the entry below.
For O=C(N/N=C/c1ccc(O)c(O)c1)N/N=C/c1ccc(O)c(O)c1 , what call appears in the results of this test?
YES

====

# systemUnderTest: Glycogen synthase kinase-3 beta (Homo sapiens) (UniProt P49841)
# assayProtocol: concentration-response blocking of human GSK3B – biochemical, luminescence, cell-free homogeneous, retest, dose response (AID 434954)
# conditionsUsed: recombinant GSK3beta, ADP-Glo luminescence, 60 min
Active and inactive are the calls of the source.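 The calls were made as follows: active = IC50 at or below a set limit above the highest tested dose; inconclusive = flat curve with 30 to 70% inhibition, or poor fit; inactive = the rest.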
Allowed answers: Y = active, N = inactive

compound=Oc1[nH]c2ccccc2c1C=Nc1ccc2c(c1)OCO2 labelclass=Y
compound=C/C(=N\Nc1nccnc1Cl)c1ccc(Br)cc1 labelclass=N
compound="Cc1[nH]nc2c1C(c1cccs1)C1=C(CCCC1=O)N2 (stereo not given)" labelclass=Y
compound="CCOC(=O)C1=C(C)Nc2ncnn2C1c1cccnc1 (stereo not given)" labelclass=N
compound=COc1ccc(-c2nn(CCC#N)cc2/C=N/O)cc1OC labelclass=N
compound="C=CCOC(=O)C1=C(C)Nc2ncnn2C1c1cccs1 (stereo not given)" labelclass=N

For CC1=C(C(=O)N2CCCCC2)C(c2cccs2)C2=C(CCCC2=O)N1 (stereo not given) , what call appears in the results of this test?
N

For Cc1c(C#N)c(O)[nH]c(=O)c1N=Nc1ccc(Br)cc1C(=O)O , what call appears in the results of this test?
N

====

# systemUnderTest: Glycogen synthase kinase-3 beta (Homo sapiens)
# assayProtocol: concentration-response blocking of human GSK3B – biochemical, luminescence, cell-free homogeneous, retest, dose response (AID 434954)
# conditionsUsed: recombinant GSK3beta, ADP-Glo luminescence, 60 min
The source made the active and inactive calls.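 How the source made its calls: active means IC50 at or below a set limit above the highest tested dose; inconclusive means flat curve with 30 to 70% inhibition, or poor fit; inactive means the rest.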
Allowed answers: active, inactive

Worked examples, 3 compounds total:
compound=COc1cc(/C=N/O)ccc1OCc1ccccc1Cl labelclass=inactive
compound="COCCOC(=O)C1=C(C)Nc2ncnn2C1c1ccccc1 (stereo unspecified)" labelclass=inactive
compound="Cc1ccc(C2C3=C(CC(C)(C)CC3=O)Nc3[nH]c(=S)[nH]c(=O)c32)cc1 (stereo unspecified)" labelclass=inactive

For Cc1ccc2c(c1)NC(c1cccs1)C1=C(CC(C)(C)CC1=O)N2 (stereo unspecified) , what call appears in the results of this test?
inactive

For Cc1c(C=Nc2ccc(S(=O)(=O)N(C)C)cc2)c(O)[nH]c(=O)c1C#N , what call appears in the results of this test?
inactive

For COc1cc(/C=N/Nc2ccc(C(F)(F)F)cn2)ccc1O , what call appears in the results of this test?
active
